# System: Escherichia coli TOP10;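 further: peptides expressed intracellularly from a pBAD plasmid library in pooled LB shake-flask culture, induced with 0.3% L-arabinose, DNA abundance read by NGS, three biological replicates, DESeq2 with apeglm shrinkage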
# assay: shrunken log2 fold change of peptide-encoding DNA abundance (4.5 h post-induction vs induction); higher = less antimicrobial activity (less host growth inhibition)
# settings: time post-induction: 4.5 h; library: site-saturation at positions 5, 18, 19, 20
Each record's class is read off its shrunken log2 fold change using these ranges: LOW = under -0.1, MID = from -0.1 up to 0.03, HIGH = 0.03 and over

1) RRIRLRPPRLPRPRPRPTCRPRP = HIGH
2) RRIRWRPPRLPRPRPRPSKNPRP = LOW

Hi, small favor: classify RRIRPRPPRLPRPRPRPDLLPRP by its shrunken log2 fold change when you get a moment.
MID

Queued: RRIRHRPPRLPRPRPRPKQIPRP
MID

Now consider RRIRARPPRLPRPRPRPDHEPRP and answer again.
MID

Field entry: RRIRYRPPRLPRPRPRPCNTPRP
LOW

Next: RRIRSRPPRLPRPRPRPRNEPRP
MID

// next record RRIRIRPPRLPRPRPRPFFKPRP
LOW

For RRIRNRPPRLPRPRPRPICSPRP then?
MID
